Attribute: % displacement at 1 nM
Target: human cloned somatostatin receptor 2 (human) (UniProt P30874)
Sequence (P30874 whole entry): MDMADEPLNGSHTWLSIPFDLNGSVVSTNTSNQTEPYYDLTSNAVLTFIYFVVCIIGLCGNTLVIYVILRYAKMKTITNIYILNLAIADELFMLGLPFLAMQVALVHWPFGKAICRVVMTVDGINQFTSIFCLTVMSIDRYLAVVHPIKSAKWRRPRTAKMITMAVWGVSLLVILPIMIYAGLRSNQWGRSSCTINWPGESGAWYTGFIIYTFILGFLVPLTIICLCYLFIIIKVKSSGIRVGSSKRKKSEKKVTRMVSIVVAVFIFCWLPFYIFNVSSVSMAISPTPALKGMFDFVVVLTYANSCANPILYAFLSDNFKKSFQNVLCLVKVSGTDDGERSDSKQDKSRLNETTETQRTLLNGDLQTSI
Assay: 125I-Tyr11-SRIF-14 displacement
*1 amine or outer side, *2 acyl side, *3 side chain or, on linkers, in order; H or OH if unused. Bridges are numbered along the chain shown (N, C = ends). Where no end group is shown, it is not given here. [ ]: non-standard residue; d: D form. The star is where a group is joined. DOTA = O=C(O)CN1CCN(CC(=O)O)CCN(CC(=O)*)CCN(CC(=O)O)CC1; N(2-mercaptoethyl)Gly = O=C(CN(CCS[*:3])[*:1])[*:2]; Glutaryl = O=C(CCCC(=O)[*:2])[*:1]
All answers are understood in %, so give the number only.

Completed entries (count: 3):
Binder: H-XRCF[dW]KTY[N(2-mercaptoethyl)Gly]-NH2 (disulfide 3-9; not fully specified (residue 1); printed as H-Phe1-Arg2-Cys3-Phe4-D-Trp5-Lys6-Thr7-Tyr8-NTEG9-NH2 (cyclo 3-9)) [SEQ ID NO: 26]
Display unit: %
% displacement at 1 nM: 0

Binder: {DOTA}-[dF]KCF[dW]KTF[N(2-mercaptoethyl)Gly]-NH2 (disulfide 3-9; SMILES C[C@@H](O)[C@@H]1NC(=O)[C@H](CCCCN)NC(=O)[C@@H](Cc2c[nH]c3ccccc23)NC(=O)[C@H](Cc2ccccc2)NC(=O)[C@@H](NC(=O)[C@H](CCCCN)NC(=O)[C@@H](Cc2ccccc2)NC(=O)CN2CCN(CC(=O)O)CCN(CC(=O)O)CCN(CC(=O)O)CC2)CSSCCN(CC(N)=O)C(=O)[C@H](Cc2ccccc2)NC1=O) [SEQ ID NO: 9]
Display unit: %
% displacement at 1 nM: 0

Binder: K[dF]RCF[dW]KTF[N(2-mercaptoethyl)Gly]-NH2 (disulfide 4-10; not fully specified (residue 1, N-terminus); printed as (DOTA)2-Lys1-D-Phe2-Arg3-Cys4-Phe5-D-Trp6-Lys7-Thr8-Phe9-NTEG10-NH2 (cyclo 3-9); also: (DOTA)2 on Lys1, sites not given here) [SEQ ID NO: 16]
Display unit: %
% displacement at 1 nM: 6

Data request, read-out % displacement at 1 nM, for {DOTA}-F[dF]RCF[dW]KTF[N(2-mercaptoethyl)Gly]-NH2 (disulfide 4-10; SMILES C[C@@H](O)[C@@H]1NC(=O)[C@H](CCCCN)NC(=O)[C@@H](Cc2c[nH]c3ccccc23)NC(=O)[C@H](Cc2ccccc2)NC(=O)[C@@H](NC(=O)[C@H](CCCNC(=N)N)NC(=O)[C@@H](Cc2ccccc2)NC(=O)[C@H](Cc2ccccc2)NC(=O)CN2CCN(CC(=O)O)CCN(CC(=O)O)CCN(CC(=O)O)CC2)CSSCCN(CC(N)=O)C(=O)[C@H](Cc2ccccc2)NC1=O) [SEQ ID NO: 20]
0

Data request, read-out % displacement at 1 nM, for {Niraparib-Glutaryl}-[dF]RCF[dW]KTF[N(2-mercaptoethyl)Gly]-NH2 (disulfide 3-9) [SEQ ID NO: 28]
0
